Data origin: patent US20110318339A1

- measured.on: T1, recombinant human DLL4 (Cat# 1506-D4/CF, R&D Systems) (human, UniProt Q9NR61 27-529)
- T1 construct: Bought protein; also called hDLL4; rHuman DLL4
- test.summary: ELISA, DLL4 coated, Fab 6.67 nM
measured.property: ELISA absorbance at 450 nm (A450)
Could you give me the number in A450? Just the number is fine.

Here is how some binders turned out for ELISA absorbance at 450 nm.
binder: Fab VH5-51_IGHD5-18*01>3_IGHJ4*01 G100K/G104T G24A/S28R/G35V & V3-4_IGLJ1*01 (Fab, V domains shown, Fab made in E. coli: VH on CH1 with His6 and Flag tags (Plasmid A), VL on lambda CL (Plasmid E); also called H: KT ARV & L: wt) VH: EVQLVQSGAEVKKPGESLKISCKASGYRFTSYWIVWVRQMPGKGLEWMGIIYPGDSDTRYSPSFQGQVTISADKSISTAYLQWSSLKASDTAMYYCARRKYSYTYDYFDYWGQGTLVTVSS VL: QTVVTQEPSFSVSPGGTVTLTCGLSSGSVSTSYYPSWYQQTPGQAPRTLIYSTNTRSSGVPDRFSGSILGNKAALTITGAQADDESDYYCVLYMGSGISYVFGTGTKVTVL
units: A450
ELISA absorbance at 450 nm: 0.025

binder: Fab VH1-46_IGHD6-6*01_IGHJ1*01 S102A/S103P/S104F/H111F I51V/N52L/S54T/G56H & L6_IGKJ1*01 S28N/S30D/S31H S52L/A55S (Fab, V domains shown, Fab made in E. coli: VH on CH1 with His6 and Flag tags (Plasmid A), VL on kappa CL (Plasmid C); also called H: APFF VLTH & L: NDH LS) VH: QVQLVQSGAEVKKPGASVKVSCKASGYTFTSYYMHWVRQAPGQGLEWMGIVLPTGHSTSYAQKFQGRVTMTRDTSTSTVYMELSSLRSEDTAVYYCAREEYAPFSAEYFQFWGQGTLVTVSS VL: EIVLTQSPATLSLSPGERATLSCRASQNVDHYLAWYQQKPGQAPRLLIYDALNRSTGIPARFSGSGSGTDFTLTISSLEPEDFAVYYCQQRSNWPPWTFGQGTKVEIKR
units: A450
ELISA absorbance at 450 nm: 0.747

binder: Fab VH5-51_IGHD5-18*01>3_IGHJ4*01 G100K/G104T & V3-4_IGLJ1*01 M94R/S96M (Fab, V domains shown, Fab made in E. coli: VH on CH1 with His6 and Flag tags (Plasmid A), VL on lambda CL (Plasmid E); also called H: KT & L: RM) VH: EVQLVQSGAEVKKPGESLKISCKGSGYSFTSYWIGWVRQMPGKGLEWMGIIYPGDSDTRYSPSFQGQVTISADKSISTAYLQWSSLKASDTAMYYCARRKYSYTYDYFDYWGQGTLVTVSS VL: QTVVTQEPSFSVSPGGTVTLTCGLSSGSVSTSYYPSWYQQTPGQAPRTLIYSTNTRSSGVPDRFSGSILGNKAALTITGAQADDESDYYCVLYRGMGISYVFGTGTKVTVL
units: A450
ELISA absorbance at 450 nm: 0.023

Note to self: ELISA absorbance at 450 nm recorded for Fab VH5-51_IGHD5-18*01>3_IGHJ4*01 G100K/G104T G24T/S28R/G35V & V3-4_IGLJ1*01 (Fab, V domains shown, Fab made in E. coli: VH on CH1 with His6 and Flag tags (Plasmid A), VL on lambda CL (Plasmid E); also called H: KT TRV & L: wt) VH: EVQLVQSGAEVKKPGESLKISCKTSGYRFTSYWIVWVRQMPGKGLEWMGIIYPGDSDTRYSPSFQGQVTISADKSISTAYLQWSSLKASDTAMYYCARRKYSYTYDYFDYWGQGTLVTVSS VL: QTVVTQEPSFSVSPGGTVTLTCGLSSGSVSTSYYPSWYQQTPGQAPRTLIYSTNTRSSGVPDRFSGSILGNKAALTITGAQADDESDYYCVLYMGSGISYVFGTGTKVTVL was 0.023

Note to self: ELISA absorbance at 450 nm recorded for Fab VH5-51_IGHD5-18*01>3_IGHJ4*01 G100K/G104T G24T/S28R/G35V & V3-4_IGLJ1*01 M94R/S96M (Fab, V domains shown, Fab made in E. coli: VH on CH1 with His6 and Flag tags (Plasmid A), VL on lambda CL (Plasmid E); also called H: KT TRV & L: RM; KT TRV-V3-4 RM) VH: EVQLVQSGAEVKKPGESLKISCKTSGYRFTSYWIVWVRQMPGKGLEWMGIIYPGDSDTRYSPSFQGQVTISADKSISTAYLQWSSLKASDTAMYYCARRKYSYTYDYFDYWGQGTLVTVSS VL: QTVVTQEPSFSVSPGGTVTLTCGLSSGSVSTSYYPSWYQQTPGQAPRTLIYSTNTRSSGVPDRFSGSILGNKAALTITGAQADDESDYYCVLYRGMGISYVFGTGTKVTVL was 0.062

Note to self: ELISA absorbance at 450 nm recorded for Fab VH5-51_IGHD5-18*01>3_IGHJ4*01 G100K/G104T S28R & V3-4_IGLJ1*01 (Fab, V domains shown, Fab made in E. coli: VH on CH1 with His6 and Flag tags (Plasmid A), VL on lambda CL (Plasmid E); also called H: KT S28R & L: wt) VH: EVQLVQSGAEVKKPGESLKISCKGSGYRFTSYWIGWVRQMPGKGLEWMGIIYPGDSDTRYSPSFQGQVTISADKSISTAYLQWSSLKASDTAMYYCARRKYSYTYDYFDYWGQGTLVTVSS VL: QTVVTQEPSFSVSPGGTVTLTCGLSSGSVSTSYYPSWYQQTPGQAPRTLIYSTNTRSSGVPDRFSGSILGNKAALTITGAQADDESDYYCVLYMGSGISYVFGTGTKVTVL was 0.003
